meta.source: PubChem BioAssay

# measurement-protocol: growth inhibitors of H69AR lung tumor, primary screen, human, duplicate replicates (AID 580);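 also: 100% = mean luminescence of untreated wells and 0% = no signal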
# run-parameters: H69AR lung tumor cells viability, ATP luminescence, 72 h; at 10 µM; hits give low values
Calls of active or inactive are those of the source.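 The calls were made as follows: active = viability at or under a set limit in both replicates, limit being median viability minus 3 SD (cut at about 48% in these data, passing the limit was not always enough); inconclusive = at or under the limit in just one replicate; inactive = at or above the limit in both replicates.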
Each item that follows carries a reported viability.

Query :: Fill in the blank: the reported viability of "CCOC(=O)N1CCN(C(=O)c2csc3c2CCCCC3)CC1" is ____.
Result :: 90.8% (inactive)

Query :: What value of viability has been reported for the following molecule? "COc1ccc(-c2cc3nc(C)c(CCC(=O)NCc4ccco4)c(C)n3n2)c(OC)c1"
Result :: 85.8% (inactive)

Query :: Which viability is reported for this molecule? CCC(C(=O)NC1CCCC1)N(Cc1ccco1)C(=O)Cn1nnc(-c2ccc(C)cc2)n1 (stereo unspecified)
Result :: 92.3% (inactive)

====

# measurement-protocol: growth suppression of yeast trafficking mutant, preliminary HTS, modulators of trafficking downstream of Golgi apparatus project, 1536-format plate, OD 615 nm (AID 637)
# run-parameters: yeast transport mutant growth, absorbance 615 nm, 18 h; hits give high values
The source made the active and inactive calls. Rule as the data show it: active = inhibition above about 30%; inactive = the rest.
measured-attribute: inhibition

Here is how some compounds turned out for inhibition.
C=CC(O)(C#CCN(CC)CC)c1ccccc1 (stereo not drawn) : -0.63% (inactive)
COc1ccc(C(=O)Nc2cccc(-c3nc4ncccc4o3)c2C)cc1OC : -3.97% (inactive)
COc1cc(OC)c(C(=O)Nc2ccc(N(C)C)cc2)cc1OC : -1.9% (inactive)
CCC1(c2ccc(F)cc2)NC(=O)N(CC(=O)c2ccc[nH]2)C1=O (stereo not drawn) : -4.83% (inactive)
Cc1cc(C)nc(SCc2nnc(SCc3ccccc3Cl)o2)n1 : 1.82% (inactive)

Query :: Can you share its inhibition? I mean this compound: O=C(NCCCN1CCOCC1)C1CC(=O)N(CCc2ccccc2)C1 (stereo not drawn)
Result :: -1.29% (inactive)

Query :: Which inhibition value is on record for CC(=O)N1CCc2cc(S(=O)(=O)NC(CC(C)C)C(=O)N3CCn4c3nc3ccccc34)ccc21 (stereo not drawn) ?
Result :: 1.8% (inactive)

Query :: Any idea what its inhibition is? The compound is Cc1ccc(NC(=O)CS(=O)CC(=O)NCC2CCCO2)cc1 (stereo not drawn)
Result :: 25% (inactive)

Query :: What value of measured inhibition is listed for CN(Cc1cccs1)CC(O)COCc1ccco1 (stereo not drawn) ?
Result :: 2.22% (inactive)

Query :: Query (compound): "CCCS(=O)(=O)NCCc1cc2cc(C)c(C)cc2[nH]c1=O" ; field requested: inhibition
Result :: -0.63% (inactive)

Query :: Value lookup for inhibition; key = "O=C(Nc1ccccc1N1CCN(C(=O)c2ccc(Cl)cc2)CC1)c1cc2ccccc2o1"
Result :: 0.81% (inactive)

Query :: # lookup: inhibition of "COc1ccc(-c2cc3n(n2)CCc2nc4ccccc4n2-3)cc1"
Result :: 0.48% (inactive)

Query :: Any idea what its inhibition is? The compound is O=C1CC(N2CCC(C(=O)N3CCCCC3)CC2)C(=O)N1 (stereo not drawn)
Result :: 3.71% (inactive)

Query :: Given CC1C(c2ccccc2)N(C)CCC12NC(=O)NC2=O (stereo not drawn) , state its recorded inhibition.
Result :: -9.02% (inactive)

Query :: # get_value(readout='inhibition', item= "CCOC(=O)Cn1c(N2CCOCC2)nc2c1c(=O)[nH]c(=O)n2C" )
Result :: -6.83% (inactive)

Query :: Requested field: inhibition. Item: Cc1cccc(C2CC(c3ccc(Br)cc3)Nc3nc(N)nn32)c1 (stereo not drawn)
Result :: 2.33% (inactive)

Query :: Name the recorded inhibition for "Cc1nc(N)c(C#N)c(-c2cccnc2)c1C" .
Result :: -2.86% (inactive)

Query :: Item under review: "COc1ccc(N2CCN(c3nc4c(c(=O)[nH]c(=O)n4C)n3CCCc3ccccc3)CC2)cc1" . Reported inhibition?
Result :: 0.48% (inactive)
